- Tested on: Escherichia coli TOP10
- Assay info: shrunken log2 fold change of peptide-encoding DNA abundance (4.5 h post-induction vs induction); higher = less antimicrobial activity (less host growth inhibition)
- Test settings: time post-induction: 4.5 h; library: site-saturation at positions 5, 18, 19, 20
Endpoint label: shrunken log2 fold change

>>> data_value("RRIRKRPPRLPRPRPRPFNSPRP")
-0.0903
>>> data_value("RRIRKRPPRLPRPRPRPDHDPRP")
0.0562
>>> data_value("RRIRGRPPRLPRPRPRPWVPPRP")
0.0241
>>> data_value("RRIRFRPPRLPRPRPRPVHHPRP")
-0.00203
>>> data_value("RRIRARPPRLPRPRPRPPMRPRP")
1.26
>>> data_value("RRIRLRPPRLPRPRPRPARTPRP")
0.468
>>> data_value("RRIRTRPPRLPRPRPRPQNGPRP")
-0.456
>>> data_value("RRIRHRPPRLPRPRPRPSYMPRP")
-0.00144

Each sequence below has a reported value. Please supply its shrunken log2 fold change.
1. RRIRERPPRLPRPRPRPQNNPRP
2. RRIRFRPPRLPRPRPRPLNGPRP

Response:
[-0.911, 0.073]

Each sequence below has a reported value. Please supply its shrunken log2 fold change.
1. RRIRRRPPRLPRPRPRPCLIPRP
2. RRIRQRPPRLPRPRPRPKYRPRP
3. RRIRQRPPRLPRPRPRPWDRPRP

Response:
1: -0.38; 2: -0.0976; 3: -0.127

Each sequence below has a reported value. Please supply its shrunken log2 fold change.
1. RRIRCRPPRLPRPRPRPCVLPRP
2. RRIRFRPPRLPRPRPRPWGCPRP
3. RRIRRRPPRLPRPRPRPTKYPRP
4. RRIRRRPPRLPRPRPRPTYNPRP
5. RRIRTRPPRLPRPRPRPCVYPRP
6. RRIRTRPPRLPRPRPRPDIAPRP

Response:
1: -0.7; 2: -0.225; 3: -0.198; 4: -0.267; 5: -0.243; 6: -0.0105

Each sequence below has a reported value. Please supply its shrunken log2 fold change.
1. RRIRFRPPRLPRPRPRPTTEPRP
2. RRIRKRPPRLPRPRPRPVCFPRP

Response:
[0.108, 0.54]

Each sequence below has a reported value. Please supply its shrunken log2 fold change.
1. RRIRIRPPRLPRPRPRPLIRPRP
2. RRIRDRPPRLPRPRPRPLHMPRP
3. RRIRQRPPRLPRPRPRPGIEPRP
4. RRIRYRPPRLPRPRPRPDKPPRP
5. RRIRYRPPRLPRPRPRPVNHPRP

Response:
[-0.508, -0.0438, -0.113, -0.0375, -0.073]

Each sequence below has a reported value. Please supply its shrunken log2 fold change.
1. RRIRWRPPRLPRPRPRPCRIPRP
2. RRIRTRPPRLPRPRPRPEIMPRP

Response:
-0.113
-0.468

====

- Tested on: Escherichia coli TOP10
- Assay info: shrunken log2 fold change of peptide-encoding DNA abundance (4.5 h post-induction vs induction); higher = less antimicrobial activity (less host growth inhibition)
- Test settings: time post-induction: 4.5 h; library: site-saturation at positions 5, 18, 19, 20
Grouping rule (shrunken log2 fold change): one = under -0.1, two = from -0.1 up to 0.04, three = 0.04 and over

Illustrative cases are given below, each with its answer.
>>> answer_label("RRIRIRPPRLPRPRPRPSWHPRP")
"one"
>>> answer_label("RRIRWRPPRLPRPRPRPRNGPRP")
"three"
>>> answer_label("RRIRGRPPRLPRPRPRPYVFPRP")
"one"
>>> answer_label("RRIRHRPPRLPRPRPRPVHGPRP")
"three"
>>> answer_label("RRIRDRPPRLPRPRPRPKYLPRP")
"one"

Prompt: Into which bin does this sequence go? RRIRPRPPRLPRPRPRPHKRPRP
Response: three

====

- Tested on: Escherichia coli TOP10
- Assay info: shrunken log2 fold change of peptide-encoding DNA abundance (4.5 h post-induction vs induction); higher = less antimicrobial activity (less host growth inhibition)
- Test settings: time post-induction: 4.5 h; library: site-saturation at positions 5, 18, 19, 20
shrunken log2 fold change vs 0.07: at or above is TRUE, below is FALSE.

Prompt: Threshold query (shrunken log2 fold change >= 0.07) on RRIRNRPPRLPRPRPRPICHPRP
Response: FALSE

====

Consider the following sequences; for each one, report its shrunken log2 fold change.
- Tested on: Escherichia coli TOP10
- Assay info: shrunken log2 fold change of peptide-encoding DNA abundance (4.5 h post-induction vs induction); higher = less antimicrobial activity (less host growth inhibition)
- Test settings: time post-induction: 4.5 h; library: site-saturation at positions 5, 18, 19, 20
Give bare numbers.

Each sequence below has a reported value. Please supply its shrunken log2 fold change.
1. RRIRRRPPRLPRPRPRPKVKPRP
2. RRIRERPPRLPRPRPRPMNPPRP
3. RRIRHRPPRLPRPRPRPKHSPRP

Response:
-0.0947
-0.488
-0.347

====

- System: Escherichia coli TOP10
- Assay info: shrunken log2 fold change of peptide-encoding DNA abundance (4.5 h post-induction vs induction); higher = less antimicrobial activity (less host growth inhibition)
- Test settings: time post-induction: 4.5 h; library: site-saturation at positions 5, 18, 19, 20
shrunken log2 fold change vs 0.01: at or above is MET, below is NOT MET.

Illustrative cases are given below, each with its answer.
>>> answer_label("RRIRVRPPRLPRPRPRPKGCPRP")
"MET"
>>> answer_label("RRIRLRPPRLPRPRPRPFFWPRP")
"MET"
>>> answer_label("RRIRYRPPRLPRPRPRPLWQPRP")
"NOT MET"
>>> answer_label("RRIRRRPPRLPRPRPRPFCTPRP")
"NOT MET"

Prompt: Threshold query (shrunken log2 fold change >= 0.01) on RRIRNRPPRLPRPRPRPADNPRP
Response: MET

====

- Test system: Escherichia coli TOP10
- Assay info: shrunken log2 fold change of peptide-encoding DNA abundance (4.5 h post-induction vs induction); higher = less antimicrobial activity (less host growth inhibition)
- Test settings: time post-induction: 4.5 h; library: site-saturation at positions 5, 18, 19, 20
shrunken log2 fold change vs -0.07: at or above is Condition met, below is Condition not met.

Illustrative cases are given below, each with its answer.
>>> answer_label("RRIRQRPPRLPRPRPRPHPYPRP")
"Condition met"
>>> answer_label("RRIRYRPPRLPRPRPRPCIYPRP")
"Condition not met"
>>> answer_label("RRIRQRPPRLPRPRPRPFPFPRP")
"Condition met"
>>> answer_label("RRIRIRPPRLPRPRPRPWSDPRP")
"Condition met"
>>> answer_label("RRIRMRPPRLPRPRPRPYPEPRP")
"Condition not met"
>>> answer_label("RRIRKRPPRLPRPRPRPIVIPRP")
"Condition met"
>>> answer_label("RRIRCRPPRLPRPRPRPYVEPRP")
"Condition not met"
>>> answer_label("RRIRNRPPRLPRPRPRPMRRPRP")
"Condition met"

Prompt: Threshold query (shrunken log2 fold change >= -0.07) on RRIRTRPPRLPRPRPRPFPRPRP
Response: Condition met

Prompt: Another sequence to check: RRIRGRPPRLPRPRPRPVYVPRP
Response: Condition met

Prompt: Another sequence to check: RRIRLRPPRLPRPRPRPNCHPRP
Response: Condition not met

Prompt: Another sequence to check: RRIRMRPPRLPRPRPRPWKLPRP
Response: Condition not met

Prompt: Another sequence to check: RRIRPRPPRLPRPRPRPANWPRP
Response: Condition met

Prompt: Another sequence to check: RRIRMRPPRLPRPRPRPNIPPRP
Response: Condition not met

Prompt: Another sequence to check: RRIRVRPPRLPRPRPRPVRMPRP
Response: Condition not met

Prompt: Another sequence to check: RRIRLRPPRLPRPRPRPNSYPRP
Response: Condition not met

Prompt: Another sequence to check: RRIRVRPPRLPRPRPRPNENPRP
Response: Condition not met

Prompt: Another sequence to check: RRIRNRPPRLPRPRPRPVGYPRP
Response: Condition met

Prompt: Another sequence to check: RRIRGRPPRLPRPRPRPVRRPRP
Response: Condition met

====

- Tested on: Escherichia coli TOP10;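 note: peptides expressed intracellularly from a pBAD plasmid library in pooled LB shake-flask culture, induced with 0.3% L-arabinose, DNA abundance read by NGS, three biological replicates, DESeq2 with apeglm shrinkage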
- Assay info: shrunken log2 fold change of peptide-encoding DNA abundance (4.5 h post-induction vs induction); higher = less antimicrobial activity (less host growth inhibition)
- Test settings: time post-induction: 4.5 h; library: site-saturation at positions 5, 18, 19, 20
shrunken log2 fold change vs -0.1: at or above is y, below is n.

>>> answer_label("RRIRERPPRLPRPRPRPFIQPRP")
"n"
>>> answer_label("RRIRERPPRLPRPRPRPRYTPRP")
"n"
>>> answer_label("RRIRNRPPRLPRPRPRPHPPPRP")
"y"
>>> answer_label("RRIRNRPPRLPRPRPRPFSPPRP")
"n"
>>> answer_label("RRIRLRPPRLPRPRPRPQWGPRP")
"y"
>>> answer_label("RRIRGRPPRLPRPRPRPAVGPRP")
"y"
>>> answer_label("RRIRMRPPRLPRPRPRPAKQPRP")
"y"
>>> answer_label("RRIRGRPPRLPRPRPRPFKHPRP")
"n"
>>> answer_label("RRIRNRPPRLPRPRPRPSRMPRP")
"n"
>>> answer_label("RRIRTRPPRLPRPRPRPWNWPRP")
"y"

Prompt: Threshold query (shrunken log2 fold change >= -0.1) on RRIRKRPPRLPRPRPRPGDAPRP
Response: y

Prompt: Another sequence to check: RRIRFRPPRLPRPRPRPEAYPRP
Response: y

Prompt: Another sequence to check: RRIRKRPPRLPRPRPRPQYKPRP
Response: n

Prompt: Another sequence to check: RRIRMRPPRLPRPRPRPPLIPRP
Response: y

Prompt: Another sequence to check: RRIRSRPPRLPRPRPRPRWWPRP
Response: y

Prompt: Another sequence to check: RRIRLRPPRLPRPRPRPWSDPRP
Response: n

Prompt: Another sequence to check: RRIRYRPPRLPRPRPRPEGKPRP
Response: y

Prompt: Another sequence to check: RRIRYRPPRLPRPRPRPVLNPRP
Response: n

Prompt: Another sequence to check: RRIRVRPPRLPRPRPRPCYKPRP
Response: n

// provenance: the supplement of paper PMC9112550
